Target: human muscarinic M4 receptor (Homo sapiens, UniProt P08173)
Construct: expressed in transfected cells
Sequence (P08173 1-479): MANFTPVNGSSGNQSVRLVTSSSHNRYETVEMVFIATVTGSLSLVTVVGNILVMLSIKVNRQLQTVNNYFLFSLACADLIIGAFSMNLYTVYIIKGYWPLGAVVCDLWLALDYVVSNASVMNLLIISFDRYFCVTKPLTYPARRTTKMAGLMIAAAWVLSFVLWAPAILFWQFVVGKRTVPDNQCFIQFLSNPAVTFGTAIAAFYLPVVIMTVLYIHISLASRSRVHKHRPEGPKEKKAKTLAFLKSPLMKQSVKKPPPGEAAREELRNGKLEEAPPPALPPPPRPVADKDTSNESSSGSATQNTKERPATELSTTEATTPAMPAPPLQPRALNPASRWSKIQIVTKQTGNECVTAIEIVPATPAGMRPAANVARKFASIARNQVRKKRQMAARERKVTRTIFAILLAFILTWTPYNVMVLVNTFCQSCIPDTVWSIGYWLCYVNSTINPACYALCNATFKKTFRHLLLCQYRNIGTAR
Experiment: Alphascreen Surefire phospho-ERK1/2 functional assay, M4
Format: cell-based
Settings: CHO cells stably expressing human M4; phospho-ERK1/2; * = variable results; read-out: pEC50 M4 (converted)
Measured EC50, listed per entry.

The examples below pair each entry with its known result.
{"MOLECULE": "CCOC(=O)N1CCC2(CC(N3CCC([C@@H]4CCCN4CCC(F)(F)F)CC3)C2)C1 (single isomer, unassigned) [2-70 Isomer 1]", "EXPERIMENTAL VALUE": "158 nM"}
{"MOLECULE": "COC(=O)N1CCC2(CC(N3CCC(c4nc(C)cn4C)CC3)C2)C1 (single isomer, unassigned) [1-11 Isomer 2]", "EXPERIMENTAL VALUE": "251 nM"}
{"MOLECULE": "CCOC(=O)N1CCC2(CC(N3CCC([C@@H]4CCCN4C(=O)OCCOC)CC3)C2)C1 (single isomer, unassigned) [2-50 Isomer 2]", "EXPERIMENTAL VALUE": "25.1 nM"}

Bench note: what EC50 did CCOC(=O)N1CCC2(CC(N3CCC(c4ncns4)CC3)C2)C1 (single isomer, unassigned) [1-30 Isomer 2] show?
12.6 nM

// same read-out, input: CCOC(=O)N1CCC2(CC(N3CCC(N4C(=O)OC[C@H]4CC)CC3)C2)C1 (single isomer, unassigned) [2-119 Isomer 2]
126 nM

// same read-out, input: CCOC(=O)N1CCC2(CC(N3CCC([C@@H]4CCCN4C(=O)OCCN(C)C)CC3)C2)C1 (single isomer, unassigned) [2-51 Isomer 2]
63.1 nM

###

Target: human muscarinic M1 receptor (Homo sapiens)
Sequence (P11229 whole entry): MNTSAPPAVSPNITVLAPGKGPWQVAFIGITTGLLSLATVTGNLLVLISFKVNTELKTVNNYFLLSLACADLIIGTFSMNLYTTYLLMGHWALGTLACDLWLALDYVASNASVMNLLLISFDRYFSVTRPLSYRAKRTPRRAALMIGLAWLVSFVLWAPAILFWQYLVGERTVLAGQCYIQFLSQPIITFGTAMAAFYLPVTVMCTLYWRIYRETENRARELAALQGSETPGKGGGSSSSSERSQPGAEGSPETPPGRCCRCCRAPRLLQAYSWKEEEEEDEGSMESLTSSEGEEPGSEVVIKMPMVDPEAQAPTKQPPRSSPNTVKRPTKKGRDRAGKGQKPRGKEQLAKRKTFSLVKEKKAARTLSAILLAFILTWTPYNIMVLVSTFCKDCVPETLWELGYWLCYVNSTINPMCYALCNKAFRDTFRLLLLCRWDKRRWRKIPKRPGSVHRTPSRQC
Assay: Alphascreen Surefire phospho-ERK1/2 functional assay, M1
Type: cell-based
Details: CHO cells stably expressing human M1; phospho-ERK1/2; * = variable results; read-out: pEC50 M1 (converted)
QUANTITY KIND: EC50 (nM)
Please reply with the bare figure in nM and do not write the unit itself.

The examples below pair each entry with its known result.
{"COMPOUND": "CCOC(=O)N1CCC2(CC(N3CCC([C@@H]4CCCN4c4ccncc4)CC3)C2)C1 (single isomer, unassigned) [2-80 Isomer 2]", "TEST SYSTEM": "human muscarinic M1 receptor (Homo sapiens)", "EC50 (nM)": 126}
{"COMPOUND": "CCOC(=O)N1CCC2(CC(N3CCC(c4nc(Cl)c(Cl)[nH]4)CC3)C2)C1 (single isomer, unassigned) [1-5 Isomer 2]", "TEST SYSTEM": "human muscarinic M1 receptor (Homo sapiens)", "EC50 (nM)": 126}
{"COMPOUND": "CCOC(=O)N1CCC2(CC(N3CCC([C@@H]4CCCN4C(=O)CCN)CC3)C2)C1 (single isomer, unassigned) [2-66 Isomer 2]", "TEST SYSTEM": "human muscarinic M1 receptor (Homo sapiens)", "EC50 (nM)": 39.8}
{"COMPOUND": "CCC(=O)N1CCCC1C1CCN(C2CC3(CCN(C(=O)OC)C3)C2)CC1 (single isomer, unassigned) [2-5 Isomer 2]", "TEST SYSTEM": "human muscarinic M1 receptor (Homo sapiens)", "EC50 (nM)": 6310}
{"COMPOUND": "CCOC(=O)N1CCC2(CC(N3CCC([C@@H]4CCCN4C(=S)NC)CC3)C2)C1 (single isomer, unassigned) [2-75 Isomer 2]", "TEST SYSTEM": "human muscarinic M1 receptor (Homo sapiens)", "EC50 (nM)": 316}

Bench note: what EC50 did COC(=O)N1CCC2(CC(N3CCC(c4nccn4C)CC3)C2)C1 (single isomer, unassigned) [1-6 Isomer 2] show?
1260

// same read-out, input: CCOC(=O)N1CCC2(CC(N3CCC(C4CCCN(C(C)C)C4=O)CC3)C2)C1 (single isomer, unassigned) [4-6 Isomer 2]
126

Values were extracted from patent US9926297B2.
